Target: T1, recombinant cynomolgus TREM2 ECD (cynomolgus)
T1 construct: extracellular domain; also called cyno TREM2
Assay: SPR (Biacore), antibody captured via anti-human Fab, recombinant TREM2 ECD injected, 1:1 fit

binder	Kd / nM
CL0020308 (antibody, V domains shown, also called Clone CL0020308) VH: QVQLKQSGPSLVQPSQSLSITCTVSGFSLTTYGIHWVRQSPGKGLEWLGVIWTGGSTAFNAAFMSRLSITKDNSKSQVFFKMNSLQADDTAIYYCAKVGFHSATDYWGQGTSVTVSS VL: DVLMTQTPLSLPVTLGDQASISCRSSQNLVHSNGNTYLEWYLQKPGQSPKLLIYKVSNRFSGVPDRFSGSGSGTDFTLKISRVEAEDLGLYYCFQGSHVPFTFGSGTKLEIK	2.28
CL0020123 (antibody, V domains shown, also called Clone CL0020123) VH: EVQLQQSGAELVRSGASVKLSCTASGFSIEDFYIHWVKQRPEQGLEWIGWIDPENGDSKYAPKFQGKATMTADTSSNTAYLHLSSLTSEDTAVYYCHADHGNYGSTMDYWGQGTSVTVSS VL: DIQMNQSPSSLSASLGDTVTITCHASQHINVWLSWYQQKPGDHPKLLIYKASNLHTGVPSRFSGSGSGTGFTLTISSLQPEDIATYYCQQGQTYPRTFGGGTKLEIK	5.7
CL0020107 (antibody, V domains shown, also called Clone CL0020107) VH: QVQLQQPGAELVKPGASVKMSCRASGYTFTNYWISWVKQRPGQGLEWIGDIYPHSTSTNYNERFRSKATLTVDKSSTTAYMQLSSLTSEDSAVYYCAREGFGISAWGQGTTLTVSS VL: QIVLTQSPAIMSASPGEKVTITCSATSSVSYMHWFQQKPGTSPKLWIYSTSNLASGVPARFSGSGSGTSHSLTISRMEAEDAATYYCQQRSSYPLTFGSGTKLELK	104
CL0020315 (antibody, V domains shown, also called Clone CL0020315) VH: EVQLQQSGPELVKPGASVKISCKASGYTFTDYNIHWVKQSHGKSLEWIGYIYPYNGVTGYNQKFKSKATLTVDNSSSTAYMELRSLTSEDSAVYYCARSRVDGDYWGQGTTLTVSS VL: DVVMTQTPLSLPVSLGDQASISCRSSQSLVHSNGNTYLHWYLQKPGQSPKLLIYKISNRFSGVPDRFSGSGSGTDFTLKISRVEAEDLGVYFCSQSTHVPLTFGAGTKLELK	2.52
CL0020188 (antibody, V domains shown, also called Clone CL0020188) VH: EVKLLDSGGGLVQAGGSLRLSCAGSGFTFTDFYMSWIRQPPGKAPEWLGVIRNKANGYTAGYNPSVKGRFTISRDNTQNILYLQMNTLRAEDTAIYYCARLTYGFDYWGQGVMVTVSS VL: DIVMTQGALPNPVPSGESASITCQSSKSLLHSNGKTYLNWYLQRPGQSPQLLIYWMSTRASGVSDRFSGSGSGTDFTLKISSVEAEDVGVYYCQQFLEYPFTFGSGTKLEIK	2
CL0020314 (antibody, V domains shown, also called Clone CL0020314) VH: DVKLVESGGGLVKLGGSLKLSCAASGFTFSSYYMSWVRQTPEKRLELVAAINTNGGRTYYPDTVKGRFTISRDNAKNTLYLQMSSLKSEDTALYYCARESDGGAFAYWGQGTLVTVSA VL: DVVMTQTPLSLPVSLGDQASISCRSSQSLVHSNGNTYLHWYLQKPGQSPKLLIYKVSNRFSGVPDRFSGSGSGTDFTLKISRVEAEDLGVYFCSQNTHVPLTFGAGTKLELK	56.9
CL0020313 (antibody, V domains shown, also called Clone CL0020313) VH: QVQLKQSGPGLLQPSQSLSITCTVSGFSLTSYGVHWVRQSPGKGLEWLGVIWSGGITLYNAAFMSRLSITKDNSKSQVFFKMNSLQADDTAIYYCAKVGYGSSSDYWGQGTTLTVSS VL: DVLMTQSPLSLPVSLGDQASFSCRSSQSIVHSNGNTYLEWYLQKPGQSPKLLIYKVSNRFSGVPDRFSGSGSGTDFTLKISRVEAEDLGVYYCFQGSHVPFTFGSGTKLEIK	13.8
CL0020201 (antibody, V domains shown, also called Clone CL0020201) VH: EVQLQQSGPVLVKPGASVRMSCKPSGYTFTDYYMNWVKQSHGKSLEWIGSINPYTGGSSYNQNFRGKATLTVDKSSSTAYMELNSLTSEDSAVYYCARGSYYSNLGFAYWGQGTLVTVSA VL: DVQLTQSPSFLTASPGETITINCRASKSISKYLAWYQEKPGKTNKLLISSGSTLQSGIPSRFSGSGSGTDFTLTISSLEPEDFAMYYCQQYSEYPFTFGSGTKLEIK	13.4
CL0020309 (antibody, V domains shown, also called Clone CL0020309) VH: QVQLKQSGPSLVQPSQSLSITCTVSGFSLTSYGVQWVRQSPGKGLEWLGVIWTGGTTDFNAAFKSRLSITKDNSKSQVFFKMNSLQADDSAIYYCAKIGFHSAVDYWGQGTSVTVSS VL: DVLMTQTPLSLPVSLGDQASISCRSSQNIVHSNGNTYLEWYLQKPGQSPKLLIYKVSNRFSGVPDRFSGSGSGTDFTLKINRVEAEDLGLYYCFQGSHIPFTFGSGTQLEIK	5.33
CL0020139 (antibody, V domains shown, also called Clone CL0020139) VH: EVQLQQSGPELVKPGASVKMSCKAPGYSFTSYLMNWVKQKPGQGLEWIGYINPYSAGSNYNEKFKDKATLTSDKSSSTAYMELRSLTSEDSAVYFCARSSYRYGFDYWGQGTTLTVSS VL: DIQMTQSSSSFSVSLGDRVTITCKASEDIYNRLAWYQQKPGNAPRLLISGATSLETGVPSRFSGSGSGKDYTLSITSLQTEDVATYSCQQYWSTPWTFGGGTKLEIK	0.3
